system: T1, ZFP SBS#508 (synthetic)
T1 chain: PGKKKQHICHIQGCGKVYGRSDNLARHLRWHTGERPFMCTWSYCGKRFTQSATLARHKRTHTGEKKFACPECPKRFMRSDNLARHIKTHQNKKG
assay.details: EMSA
details: tags: MBP fusion

| binder | result.units | Kd |
| --- | --- | --- |
| GAGGTAGAGG (dsDNA) DNA 1: GAGGTAGAGG DNA 2: CCTCTACCTC | nM | 10 |
